- STUDY SYSTEM: T1, cynomolgus SIRPα (cySIRPα), protein antigen (cynomolgus monkey, UniProt A0A2K5VYQ9 31-369)
- T1 construct: Coated on the plate in ELISA
- T1 sequence: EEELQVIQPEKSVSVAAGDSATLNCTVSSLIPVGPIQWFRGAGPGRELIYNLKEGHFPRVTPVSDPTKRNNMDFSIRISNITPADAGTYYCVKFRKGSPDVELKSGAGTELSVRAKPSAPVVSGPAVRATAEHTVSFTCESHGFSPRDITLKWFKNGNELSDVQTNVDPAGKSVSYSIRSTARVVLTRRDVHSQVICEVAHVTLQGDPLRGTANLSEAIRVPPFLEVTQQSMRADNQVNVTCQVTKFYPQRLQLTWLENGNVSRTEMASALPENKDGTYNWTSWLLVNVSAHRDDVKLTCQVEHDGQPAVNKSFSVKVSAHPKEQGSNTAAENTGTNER
- PROTOCOL DESCRIPTION: ELISA, antigen coated
- Experimental: ELISA assay: Solutions of huSIRPα₁, huSIRPαBIT, huSIRPβ₁ᵥ₁, huSIRPβ₁ᵥ₂, huSIRPγ and cySIRPα in phosphate buffered saline (PBS) were each added to a multiple well black polystyrene plate for ELISA and allowed to adhere for 1 h at RT. Unbound protein was removed with three washing steps using standard washing buffer. Subsequently, blocking buffer was added to the wells. After 1 h incubation at RT, the wells were washed three times with standard washing buffer. […] Absorbance was read at 450 nm/620 nm.
MEASUREMENT NAME: EC50
The answer should read as a number with its unit following.

Worked cases, EC50 given:
- BINDER: "anti-SIRPα antibody 9 (antibody, human IgG1, kappa, L234A L235A, V domains shown, Rabbit variable regions on human IgG1 LALA / kappa) VH: QSMEESGGRLVTPGTPLTLTCTASGFSLSNYGVSWVRQAPGKGLEWIGIIYGGSDITAYASWAKGRFTISKTSTTVDLTITSPTTEDTATYFCAKSYTNGMDYYNIWGPGTLVTVSL VL: AFDLTQTPSSVEAPVGGTVIIKCQASQSISSYLAWYQQKPGQPPKLLIYSASTLASGVSSRFKGSGSETQFPLTISDLESADAATYYCQSYYGSRSNVFGGGTEVVVKR"
  MEASURED: "0.03 µg/mL"
- BINDER: "anti-SIRPα antibody 4 (antibody, human IgG1, kappa, L234A L235A, V domains shown, Chimeric: rabbit variable regions on human IgG1 LALA / kappa; also called chimeric antibody 4) VH: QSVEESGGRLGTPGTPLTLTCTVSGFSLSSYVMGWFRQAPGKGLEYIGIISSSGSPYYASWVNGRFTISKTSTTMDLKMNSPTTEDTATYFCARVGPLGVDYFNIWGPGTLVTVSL VL: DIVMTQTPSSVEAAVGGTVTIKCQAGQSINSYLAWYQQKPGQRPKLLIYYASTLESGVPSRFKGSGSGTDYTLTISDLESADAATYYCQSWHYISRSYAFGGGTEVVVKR"
  MEASURED: "0.099 µg/mL"

Turning now to a further binder:
Q: Need EC50 of anti-SIRPα antibody 7 (antibody, human IgG1, kappa, L234A L235A, V domains shown, Chimeric: rabbit variable regions on human IgG1 LALA / kappa; also called chimeric antibody 7) VH: RSVEESGGRLVTPGTPLTLTCTVSGFSLSSHGISWVRQAPGKGLEYIGTIGTGVITYFASWAKGRFTGSKTSTTVDLKITSPTTEDTATYFCARGSAWNDPFDPWGPGTLVTVSS VL: ALVMTQTPASVSAAVGGTVTTKCQASQSVYGNNDLAWYQHKPGQPPKLLIYLASTLATGVPSRFSGSGSGTQFTLTITGVQSDDAATYYCLGGGDDEADNVFGGGTEVVVKR , thanks.
Ans: 0.335 µg/mL

Measured values drawn from patent US20220195063A1 for this set.
